# MEASURED_ON: UniProt:P49682
# Sequence (P49682 whole entry): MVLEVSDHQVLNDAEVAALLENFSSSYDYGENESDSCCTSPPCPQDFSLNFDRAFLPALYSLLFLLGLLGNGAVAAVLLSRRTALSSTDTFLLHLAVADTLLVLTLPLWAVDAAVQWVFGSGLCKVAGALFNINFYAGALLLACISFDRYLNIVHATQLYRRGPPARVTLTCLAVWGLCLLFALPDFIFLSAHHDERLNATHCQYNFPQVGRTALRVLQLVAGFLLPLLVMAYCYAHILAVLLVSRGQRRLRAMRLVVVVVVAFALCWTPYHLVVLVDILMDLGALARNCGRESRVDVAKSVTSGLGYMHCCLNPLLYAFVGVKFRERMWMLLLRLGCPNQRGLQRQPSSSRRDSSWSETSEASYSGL
# TEST_DESCRIPTION: FLIPR assay
# RECORDED_CONDITIONS: CHO-K1 cells expressing the human CXCR3A coupled to Galpha(16); CXCL10 agonist 20 nM; Fluo-4-AM fluorescence; mean values if determined several times
pIC50: −log10 of the molar value.
I would appreciate it if you labelled entries met when pIC50 is 8 or higher, otherwise not met.

Query block: Threshold query (pIC50 >= 8) on C[C@@H]1CN(c2scnc2-c2nc3c(F)cccc3[nH]2)CCN1C(=O)Cn1cnc2cccnc21
Result block: met

Query block: Subsequent entry: C[C@@H]1CN(c2scnc2-c2nc3ccccc3[nH]2)CCN1C(=O)Cn1cc(Cl)c2cccnc21
Result block: met

Query block: Subsequent entry: O=C(Cn1ccc2cccnc21)N1CCN(c2sc(Br)nc2-c2nc3ccccc3[nH]2)CC1
Result block: met

Query block: Subsequent entry: C[C@@H]1CN(c2scnc2-c2nc3ccccc3[nH]2)CCN1C(=O)Cn1cc(-c2ccccc2)nn1
Result block: met

Query block: Subsequent entry: C[C@@H]1CN(c2scnc2-c2nc3ccccc3[nH]2)CCN1C(=O)Cn1ccc2ccnc(Cl)c21
Result block: met

Query block: Subsequent entry: COc1ccc(CC(=O)N2CCN(c3scnc3-c3nc4ccccc4[nH]3)CC2)c(F)c1
Result block: not met

Query block: Subsequent entry: Cc1cc(CC(=O)N2CCN(c3sc(C(F)(F)F)nc3-c3nc4ccccc4[nH]3)C[C@H]2C)cc(C)n1
Result block: met

Query block: Subsequent entry: COc1cccc2c1ccn2CC(=O)N1CCN(c2scnc2-c2nc3ccccc3[nH]2)CC1
Result block: not met

Query block: Subsequent entry: C[C@@H]1CN(c2sc(C(F)(F)F)nc2-c2nc3ccccc3[nH]2)CCN1C(=O)Cc1cccc(-n2nccn2)c1
Result block: met

Query block: Subsequent entry: Cc1nc(C)n(CC(=O)N2CCN(c3sc(C(F)(F)F)nc3-c3nc4c(F)c(F)ccc4[nH]3)C[C@H]2C)n1
Result block: met

Query block: Subsequent entry: Cc1ccc(CC(=O)N2CCN(c3sc(C(F)(F)F)nc3-c3nc4ccccc4[nH]3)C[C@H]2C)cn1
Result block: met

Query block: Subsequent entry: C[C@@H]1CN(c2sc(C(F)(F)F)nc2-c2nc3ccccc3[nH]2)CCN1C(=O)CN1C(=O)Cc2ccccc21
Result block: met

Query block: Subsequent entry: Cc1ccn(CC(=O)N2CCN(c3scnc3-c3nc4ccccc4[nH]3)CC2)n1
Result block: not met

Query block: Subsequent entry: C[C@@H]1CN(c2sc(C(F)(F)F)nc2-c2nc3ccc(N(C)C)cc3[nH]2)CCN1C(=O)Cn1cccn1
Result block: met

Query block: Subsequent entry: C[C@@H]1CN(c2scnc2-c2nc3ccccc3[nH]2)CCN1C(=O)Cc1cccc2[nH]ccc12
Result block: not met

Query block: Subsequent entry: C[C@@H]1CN(c2scnc2-c2nc3cc(C(F)(F)F)ccc3[nH]2)CCN1C(=O)Cn1cnc2cccnc21
Result block: met

Query block: Subsequent entry: C[C@@H]1CN(c2sc(-c3ccccc3F)nc2-c2nc3ccccc3[nH]2)CCN1C(=O)Cn1cnc2cccnc21
Result block: not met

Query block: Subsequent entry: C[C@@H]1CN(c2scnc2-c2nc3ccc(-c4ccccc4)cc3[nH]2)CCN1C(=O)Cn1cnc2cccnc21
Result block: met

Query block: Subsequent entry: C[C@@H]1CN(c2sc(C(F)(F)F)nc2-c2nc3ccccc3[nH]2)CCN1C(=O)Cn1c(=O)[nH]c2cccnc21
Result block: met

Query block: Subsequent entry: C[C@@H]1CN(c2sc(C(F)(F)F)nc2-c2nc3ccccc3[nH]2)CCN1C(=O)Cn1cccn1
Result block: met

Query block: Subsequent entry: C[C@@H]1CN(c2sc(CCC(=O)O)nc2-c2nc3ccccc3[nH]2)CCN1C(=O)Cn1ccc2cccnc21
Result block: not met

Query block: Subsequent entry: C[C@@H]1CN(c2scnc2-c2nc3ccccc3[nH]2)CCN1C(=O)CN1CCc2cccnc21
Result block: met

Query block: Subsequent entry: C[C@@H]1CN(c2scnc2-c2nc3ccccc3[nH]2)CCN1C(=O)CN1C(=O)C(F)(F)c2ccccc21
Result block: met

Numbers sourced from patent US9266876B2.
